# target.of.assay: recombinant human GST-Syk (Homo sapiens)
# Construct: purchased Carna Biosciences 08-176
# assay.name: Homogeneous Time-Resolved Fluorescence (HTRF) assay for the recombinant human Syk enzyme
# Format: biochemical
# experimental.parameters: ATP 25 μM, 10-dose titration, read-out: rhSYK Activity
pIC50: −log10 of the molar value.
quantity: pIC50

The examples below pair each entry with its known result.
- molecule: "COC(=O)c1cn(-c2cc(N)cc(Nc3cc(C(F)(F)F)ccn3)n2)cn1 [Example 85]"
  pIC50: "≥ 7.00"
- molecule: "Cc1cc(Nc2cc(C)c(F)cn2)nc(-n2cnc([C@]3(O)CC[C@@H](OC(=O)c4ccccc4)CC3)c2)c1 [Example 48]"
  pIC50: "≥ 7.00"
- molecule: "COC(=O)CCc1cn(-c2cc(Nc3nccc(C(F)(F)F)n3)cc(N3CCOCC3)c2)cn1 [Example 106]"
  pIC50: "≥ 7.00"
- molecule: "Cc1cc(Nc2nccc(C(F)(F)F)n2)cc(-n2cnc(C3(O)CCC(CC(N)=O)CC3)c2)c1 (stereo not shown) [Example 6]"
  pIC50: "≥ 7.00"
- molecule: "Cc1cc(Nc2nccc(C)n2)cc(-n2cnc3cc(C(=O)O)ccc32)c1 [Example 72]"
  pIC50: "6.00 to 7.00"

[in] Query: pIC50; subject: Cc1cc(Nc2cc(C(F)(F)F)ccn2)nc(-n2cnc([C@]3(O)CC[C@@H](OC(=O)c4ccccc4)CC3)c2)c1 [Example 64]
[out] ≥ 7.00

[in] Query: pIC50; subject: CCOC(=O)[C@H]1CC[C@@](O)(c2cn(-c3cc(C)cc(Nc4cc(C(F)(F)F)ccn4)n3)cn2)CC1 [Example 28]
[out] ≥ 7.00

[in] Query: pIC50; subject: Cc1cc(Nc2cc(C(F)(F)F)ccn2)nc(-n2cnc(CCC(=O)O)c2)c1 [Example 74]
[out] 6.00 to 7.00

[in] Query: pIC50; subject: Cc1cc(Nc2cc(C)c(Cl)cn2)nc(-n2cnc([C@]3(O)CC[C@@H](OC(=O)c4ccccc4)CC3)c2)c1 [Example 49]
[out] 6.00 to 7.00

[in] Query: pIC50; subject: Cc1cc(Nc2cc(C(C)(C)C)ccn2)nc(-n2cnc([C@]3(O)CC[C@@H](OC(=O)c4ccccc4)CC3)c2)c1 [Example 52]
[out] ≥ 7.00

[in] Query: pIC50; subject: COC(=O)c1cn(-c2cccc(Nc3cc(Cl)ccn3)n2)cn1 [Example 69]
[out] 6.00 to 7.00

[in] Query: pIC50; subject: Cc1ccnc(Nc2cc(C)cc(-n3cnc(C(O)(C4CC4)C4CC4)c3)n2)c1 [Example 86]
[out] ≥ 7.00

[in] Query: pIC50; subject: Cc1cc(Nc2nccc(C(F)(F)F)n2)cc(-n2cnc(C3(O)CCC(C(=O)N4CCCC4)CC3)c2)c1 (stereo not shown) [Example 31]
[out] ≥ 7.00

[in] Query: pIC50; subject: CCOC(=O)[C@H]1CC[C@](O)(c2cn(-c3cc(C)cc(Nc4cc(C(F)(F)F)ccn4)n3)cn2)CC1 [Example 29]
[out] ≥ 7.00

[in] Query: pIC50; subject: Cc1cc(Nc2nccc(C(F)(F)F)n2)cc(-n2cnc(C(=O)N3CCCC3)c2)c1 [Example 88]
[out] ≥ 7.00

[in] Query: pIC50; subject: CC(C)(O)c1cn(-c2cccc(Nc3cc(Cl)ccn3)n2)cn1 [Example 101]
[out] ≥ 7.00

The measurements presented in this section are drawn from patent US9487504B2.
